study-system: 6His(GST)RORgamma-LBD (Homo sapiens)
Construct: the applied RORgamma-LBD contains a 6-His and GST tag; GST (N)
Sequence (P51449 269-508 limits assumed): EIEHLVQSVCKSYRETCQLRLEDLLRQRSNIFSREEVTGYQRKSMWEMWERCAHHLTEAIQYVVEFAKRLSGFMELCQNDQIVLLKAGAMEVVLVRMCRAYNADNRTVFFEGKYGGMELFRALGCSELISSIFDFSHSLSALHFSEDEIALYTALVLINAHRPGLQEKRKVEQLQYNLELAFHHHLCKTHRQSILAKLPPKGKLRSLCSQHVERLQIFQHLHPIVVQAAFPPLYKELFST
test-summary: TR-FRET assay (Protocol A), RORgamma-LBD / SRC1_2 co-activator peptide interaction
assay-context: SRC1_2 peptide 0.1 μM, RORgamma-LBD 10 nM, overnight incubation at 4° C.
quantity-kind: EC50 (nM)

Consider the worked cases shown below.
>  <compound>
O=C(O)c1ccc(-c2nn(C(=O)c3c(Cl)cccc3Cl)c3ccccc23)cc1

>  <study-system>
6His(GST)RORgamma-LBD (Homo sapiens)

>  <EC50, nM>
10.7

$$$$
>  <compound>
Cc1c(Cl)cccc1S(=O)(=O)n1nc(-c2ccc(C(=O)O)cc2)c2ccccc21 [Example 13D]

>  <study-system>
6His(GST)RORgamma-LBD (Homo sapiens)

>  <EC50, nM>
52.5

$$$$
>  <compound>
Cc1ccc(C#N)c(S(=O)(=O)n2nc(-c3ccc(C(=O)O)cc3)c3ccccc32)c1 [Example 15E]

>  <study-system>
6His(GST)RORgamma-LBD (Homo sapiens)

>  <EC50, nM>
513

$$$$
>  <compound>
O=C(O)c1ccc(-c2nn(C(=O)c3ccccc3Br)c3ccccc23)cc1 [Example 11B]

>  <study-system>
6His(GST)RORgamma-LBD (Homo sapiens)

>  <EC50, nM>
44.7

$$$$

(1) O=C(O)c1ccc(-c2nn(C(=O)c3c(F)cccc3C(F)(F)F)c3ccccc23)cc1 [Example 11F]
(2) O=C(O)c1ccc(-c2nn(S(=O)(=O)c3cc(Cl)ccc3Cl)c3ccccc23)cc1 [Example 13C]
(3) O=C(O)c1ccc(-c2nn(C(=O)c3c(Cl)cccc3Cl)c3cccnc23)cc1
(4) O=S(=O)(c1ccc(F)cc1Br)n1nc(-c2ccc(-c3nnn[nH]3)cc2)c2ccccc21 [Example 21B]
(5) O=C(O)c1ccc(-c2nn(C(=O)c3ccccc3Cl)c3ccccc23)cc1 [Example 11L]
// query # desc sort on EC50 across 5 compounds Give your ranking as a list of the labels in the requested order.
// result 4, 2, 1, 5, 3

* * *

study-system: HIS-tagged RORγ-LBD (Homo sapiens)
Construct: HIS-tagged RORγ-LBD was recombinantly expressed in SF9 cells using a baculovirus expression system; made in house; host or cells: SF9 cells, baculovirus; crude lysate used
Sequence (P51449 269-508 limits assumed): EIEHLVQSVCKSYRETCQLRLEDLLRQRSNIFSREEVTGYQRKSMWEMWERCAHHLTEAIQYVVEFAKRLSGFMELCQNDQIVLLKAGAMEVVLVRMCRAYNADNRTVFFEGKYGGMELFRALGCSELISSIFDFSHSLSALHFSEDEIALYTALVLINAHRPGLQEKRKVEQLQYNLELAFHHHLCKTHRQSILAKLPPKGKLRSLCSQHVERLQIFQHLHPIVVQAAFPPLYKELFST
test-summary: TR-FRET assay (Protocol C), purified RORγ-LBD / biotinylated SRC1 LXXLL peptide
Assay type: biochemical
assay-context: purified RORγ-LBD 3 nM, SRC1 peptide 100 nM, overnight at 4° C.
quantity-kind: IC50

>  <compound>
COCCN(C)C(=O)c1ccc2c(-c3ccc(C(=O)O)cc3F)nn(C(=O)c3c(Cl)cccc3C(F)(F)F)c2c1 [Example 25S]

>  <study-system>
HIS-tagged RORγ-LBD (Homo sapiens)

>  <val>
< 50 nM

$$$$
>  <compound>
COc1cccc(F)c1C(=O)n1nc(-c2ccc(C(=O)O)cc2)c2cccc(F)c21 [Example 24AV]

>  <study-system>
HIS-tagged RORγ-LBD (Homo sapiens)

>  <val>
50 to 500 nM

$$$$
>  <compound>
COCCCNC(=O)c1ccc2c(-c3ccc(C(=O)O)cc3F)nn(C(=O)c3c(Cl)cccc3C(F)(F)F)c2c1 [Example 25N]

>  <study-system>
HIS-tagged RORγ-LBD (Homo sapiens)

>  <val>
< 50 nM

$$$$
>  <compound>
O=C(O)c1cc(-c2nn(C(=O)c3c(Cl)cccc3C(F)(F)F)c3cccnc23)ccc1O [Example 24AL]

>  <study-system>
HIS-tagged RORγ-LBD (Homo sapiens)

>  <val>
> 10000 nM

$$$$
>  <compound>
COc1cccc(F)c1C(=O)n1nc(-c2ccc(C(=O)O)cc2F)c2ccccc21 [Example 24AU]

>  <study-system>
HIS-tagged RORγ-LBD (Homo sapiens)

>  <val>
< 50 nM

$$$$

// query Identify the reported IC50 for the following entry. O=C(O)c1cc(F)c(-c2nn(C(=O)c3c(Cl)cccc3C(F)(F)F)c3cccc(F)c23)cc1O [Example 26F]
// result < 50 nM

// query Fill in IC50 for record O=C(O)c1ccc(-c2nn(C(=O)c3c(Cl)cccc3C(F)(F)F)c3cc(C(=O)N4CCCC4)ccc23)cc1 [Example 25V]
// result < 50 nM

// query Output measured IC50 for this item: COCc1ccc2c(-c3ccc(C(=O)O)cc3)nn(C(=O)c3c(Cl)cccc3C(F)(F)F)c2c1 [Example 24BG]
// result 50 to 500 nM

* * *

Reported values of pIC50 for individual entries
study-system: HIS-tagged RORγ-LBD (Homo sapiens)
Construct: HIS-tagged RORγ-LBD was recombinantly expressed in SF9 cells using a baculovirus expression system; made in house; host or cells: SF9 cells, baculovirus; crude lysate used
test-summary: TR-FRET assay (Protocol B), RORγ-LBD lysate / biotinylated SRC1-2 LXXLL peptide
Assay type: biochemical
assay-context: unpurified RORγ-LBD lysate ~10 nM, SRC1-2 peptide 450 nM
pIC50: −log10 of the molar value.

>  <compound>
O=C(O)c1c(F)cc(-c2nn(C(=O)c3c(Cl)cccc3C(F)(F)F)c3cccc(F)c23)cc1F [Example 24R]

>  <pIC50>
> 7.30

$$$$
>  <compound>
O=C(O)c1ccc(-c2nn(C(=O)c3c(Cl)cccc3C(F)(F)F)c3cccc(F)c23)c(O)c1 [Example 26E]

>  <pIC50>
> 7.30

$$$$

As a next step, examine the compound that follows.
// query Give pIC50 for the following compound: O=C(O)c1ccc(-c2nn(C(=O)c3c(Cl)cccc3C(F)(F)F)c3cccnc23)cc1O [Example 26H]
// result > 7.30
